# SYSTEM_UNDER_TEST: Human adrenergic α2B receptor (Homo sapiens)
# Sequence (P18089 whole entry): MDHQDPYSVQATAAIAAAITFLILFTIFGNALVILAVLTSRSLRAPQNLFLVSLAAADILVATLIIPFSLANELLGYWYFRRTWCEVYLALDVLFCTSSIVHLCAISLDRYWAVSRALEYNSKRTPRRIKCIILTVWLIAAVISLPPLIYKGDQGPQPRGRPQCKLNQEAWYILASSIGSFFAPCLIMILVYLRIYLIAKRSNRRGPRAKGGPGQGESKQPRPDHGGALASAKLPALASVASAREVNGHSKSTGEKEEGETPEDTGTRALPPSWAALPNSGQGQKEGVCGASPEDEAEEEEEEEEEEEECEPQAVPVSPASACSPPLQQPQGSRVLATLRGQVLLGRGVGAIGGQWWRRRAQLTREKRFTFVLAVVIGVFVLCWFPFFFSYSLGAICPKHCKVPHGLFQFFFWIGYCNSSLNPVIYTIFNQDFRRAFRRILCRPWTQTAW
# ASSAY_PROCEDURE: Radioligand binding, adrenergic α2B (Protocol Group B)
# Set-up: purchased Milipore (Millipore)
# CONDITION_DETAILS: 30 nM compound; Protocol Group B; 0.03 µM
READOUT_NAME: Percentage inhibition of ligand binding, Adrenergic α2B (30 nM) (%)
Hi! Could you send only the number? It should be in %, unit omitted.

// Cc1cc(F)cc2c3c(n(CC(O)c4ccncc4)c12)CCN1CCCC31 (single isomer, unassigned) [136d] : Percentage inhibition of ligand binding, Adrenergic α2B (30 nM) value = −8

In plain terms, Cc1cc(F)cc2c3c(n(CC(C)(O)c4cccnc4)c12)CC1CCCN1C3 (single isomer, unassigned) [76b] has a documented Percentage inhibition of ligand binding, Adrenergic α2B (30 nM) of 5

The recorded Percentage inhibition of ligand binding, Adrenergic α2B (30 nM) for Cc1ccc2c(c1)c1c(n2CC(C)(O)c2cccnc2)CC2CCCN2C1 (single isomer, unassigned) [38c] is 71

The recorded Percentage inhibition of ligand binding, Adrenergic α2B (30 nM) for Cc1cc(Br)c2c(c1)c1c(n2CC(O)c2ccncc2)CCN2CCCC12 (single isomer, unassigned) [145b] is 100

So for CC(O)(Cn1c2c(c3cc(Cl)cc(F)c31)C1CCCN1CC2)c1ccncc1 (single isomer, unassigned) [52b] , the logged Percentage inhibition of ligand binding, Adrenergic α2B (30 nM) turned out to be 96

----------
Hi there, I'd appreciate the recorded Percentage inhibition of ligand binding, Adrenergic α1B (0.1 μM) for every entry that follows.
# SYSTEM_UNDER_TEST: Human adrenergic α1B receptor (Homo sapiens, UniProt P35368)
# Sequence (P35368 whole entry): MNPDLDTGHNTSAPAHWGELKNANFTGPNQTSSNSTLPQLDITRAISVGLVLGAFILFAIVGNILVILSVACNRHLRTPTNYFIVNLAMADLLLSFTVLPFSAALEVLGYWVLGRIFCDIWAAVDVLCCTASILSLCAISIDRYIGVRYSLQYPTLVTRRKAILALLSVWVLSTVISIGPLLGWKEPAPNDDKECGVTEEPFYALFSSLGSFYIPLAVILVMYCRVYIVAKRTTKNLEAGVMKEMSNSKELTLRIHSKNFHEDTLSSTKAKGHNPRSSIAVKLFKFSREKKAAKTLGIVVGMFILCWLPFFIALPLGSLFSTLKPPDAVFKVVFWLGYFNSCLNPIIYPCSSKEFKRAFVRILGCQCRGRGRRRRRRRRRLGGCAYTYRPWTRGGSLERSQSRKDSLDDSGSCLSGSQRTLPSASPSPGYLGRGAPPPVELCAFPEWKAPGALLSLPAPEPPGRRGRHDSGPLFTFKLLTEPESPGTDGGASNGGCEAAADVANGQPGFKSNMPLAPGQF
# ASSAY_PROCEDURE: Radioligand binding, adrenergic α1B (Protocol Group B)
# Set-up: purchased Milipore (Millipore)
# CONDITION_DETAILS: 0.1 μM compound; Protocol Group B; 0.1 µM
Use % as the unit, but write only the number.

Please fill in: Percentage inhibition of ligand binding, Adrenergic α1B (0.1 μM) reported for CC(O)(Cn1c2c(c3cc(Cl)cc(F)c31)CN1CCCC1C2)c1ccncc1 (single isomer, unassigned) [86b] = 3

Please fill in: Percentage inhibition of ligand binding, Adrenergic α1B (0.1 μM) reported for Cc1ccc2c(c1)c1c(n2CC(C)(O)c2cccnc2)CC2CCCN2C1 (single isomer, unassigned) [38b] = 15

Record summary for Cc1cc(C)c2c(c1)c1c(n2CC(C)(O)c2cccnc2)CCN2CCCC12 (single isomer, unassigned) [44c] : reported Percentage inhibition of ligand binding, Adrenergic α1B (0.1 μM) = 7

Form: molecule = CC(O)(Cn1c2c(c3cc(C(F)(F)F)ccc31)C1CCCN1CC2)c1cccnc1 (single isomer, unassigned) [64a] ; Percentage inhibition of ligand binding, Adrenergic α1B (0.1 μM) = 18

Lab note: CC(O)(Cn1c2c(c3cc(Cl)cc(F)c31)CN1CCCC1C2)c1ccncc1 (single isomer, unassigned) [86d] gave Percentage inhibition of ligand binding, Adrenergic α1B (0.1 μM) of 3

The molecule listed as Cc1cc(C)c2c(c1)c1c(n2CC(C)(O)c2ccncc2)CCN2CCCC12 (single isomer, unassigned) [19d] has a reported Percentage inhibition of ligand binding, Adrenergic α1B (0.1 μM) of −8

Lookup result for Cc1cc(F)c2c(c1)c1c(n2CC(O)c2ccncc2)CCN2CCCC12 (single isomer, unassigned) [137d] ; measured Percentage inhibition of ligand binding, Adrenergic α1B (0.1 μM): 19

----------
# SYSTEM_UNDER_TEST: Human adrenergic α2B receptor (Homo sapiens)
# ASSAY_PROCEDURE: Radioligand binding, adrenergic α2B (Protocol Group B)
# Set-up: purchased Milipore (Millipore)
# CONDITION_DETAILS: 10 nM compound; Protocol Group B; 0.01 µM
I'd be grateful if you could share measured Percentage inhibition of ligand binding, Adrenergic α2B (10 nM) for these entries.
Reply numerically in %, unit not repeated.

Recorded result, Cc1ccc2c(c1)c1c(n2CC(C)(O)c2cccnc2)CC2CCC1N2C (single isomer, unassigned) [101c] , Percentage inhibition of ligand binding, Adrenergic α2B (10 nM): 7

Given item Cc1ccc2c(c1)c1c(n2CC(O)c2ccncc2)CN(C)C2CCCC12 (single isomer, unassigned) [36b] , the value recorded as its Percentage inhibition of ligand binding, Adrenergic α2B (10 nM) is −19

CC(O)(Cn1c2c(c3cc(F)cc(Cl)c31)C1CCCN1CC2)c1cccnc1 (single isomer, unassigned) [89a] has a reported Percentage inhibition of ligand binding, Adrenergic α2B (10 nM) of −9

Percentage inhibition of ligand binding, Adrenergic α2B (10 nM) reported for this compound CC(O)(Cn1c2c(c3cc(Cl)cc(F)c31)C1CCCN1CC2)c1cccnc1 (single isomer, unassigned) [53b] : 74

The recorded Percentage inhibition of ligand binding, Adrenergic α2B (10 nM) for CC(O)(Cn1c2c(c3cc(F)ccc31)C1CCCN1CC2)c1cccnc1 (stereo not drawn) [57a] is −7

Please fill in: Percentage inhibition of ligand binding, Adrenergic α2B (10 nM) reported for Cc1cc(F)c2c(c1)c1c(n2CC(O)c2ccncc2)CCN2CCCC12 (single isomer, unassigned) [137d] = 21

response.value for CC(O)(Cn1c2c(c3cc(F)ccc31)C1CCCN1CC2)c1cccnc1 (stereo not drawn) [57b] (field: Percentage inhibition of ligand binding, Adrenergic α2B (10 nM)) = −7

Note to self: Percentage inhibition of ligand binding, Adrenergic α2B (10 nM) recorded for Cc1ccc2c(c1)c1c(n2CC(O)c2ccncc2F)CCN2CCCC12 (single isomer, unassigned) [14a] was 60

Documented Percentage inhibition of ligand binding, Adrenergic α2B (10 nM) of Cc1cc(F)c2c(c1)c1c(n2CC(C)(O)c2ccncc2)CC2CCCN2C1 (single isomer, unassigned) [62a] : 21

Consider OC(Cn1c2c(c3cc(F)ccc31)C1CCCN1CC2)c1ccncc1 (single isomer, unassigned) [18a] . Its measured Percentage inhibition of ligand binding, Adrenergic α2B (10 nM) is 41

Input Cc1ccc2c(c1)c1c(n2CC(O)c2cccnc2)CC2CCCN2C1 (single isomer, unassigned) [27a] . Output Percentage inhibition of ligand binding, Adrenergic α2B (10 nM): 6

Please fill in: Percentage inhibition of ligand binding, Adrenergic α2B (10 nM) reported for OC(Cn1c2c(c3cc(Cl)cc(F)c31)C1CCCN1CC2)c1ccncc1 (single isomer, unassigned) [135c] = 4

Lab note: measured Percentage inhibition of ligand binding, Adrenergic α2B (10 nM) of Cc1cc(F)cc2c3c(n(CC(C)(O)c4cccnc4)c12)CCN1CCCC31 (single isomer, unassigned) [75a] was 8

So, OC(Cn1c2c(c3cc(F)ccc31)C1CCCN1CC2)c1ccncc1 (single isomer, unassigned) [18c] ? Its Percentage inhibition of ligand binding, Adrenergic α2B (10 nM) was 17

# Percentage inhibition of ligand binding, Adrenergic α2B (10 nM) (compound: Cc1ccc2c(c1)c1c(n2CC(C)(O)c2cccnc2)CC2CCCN2C1 (stereo not drawn) [38d] ) is 1

----------
# SYSTEM_UNDER_TEST: Human adrenergic α2A receptor (Homo sapiens, UniProt P08913)
# Sequence (P08913 whole entry): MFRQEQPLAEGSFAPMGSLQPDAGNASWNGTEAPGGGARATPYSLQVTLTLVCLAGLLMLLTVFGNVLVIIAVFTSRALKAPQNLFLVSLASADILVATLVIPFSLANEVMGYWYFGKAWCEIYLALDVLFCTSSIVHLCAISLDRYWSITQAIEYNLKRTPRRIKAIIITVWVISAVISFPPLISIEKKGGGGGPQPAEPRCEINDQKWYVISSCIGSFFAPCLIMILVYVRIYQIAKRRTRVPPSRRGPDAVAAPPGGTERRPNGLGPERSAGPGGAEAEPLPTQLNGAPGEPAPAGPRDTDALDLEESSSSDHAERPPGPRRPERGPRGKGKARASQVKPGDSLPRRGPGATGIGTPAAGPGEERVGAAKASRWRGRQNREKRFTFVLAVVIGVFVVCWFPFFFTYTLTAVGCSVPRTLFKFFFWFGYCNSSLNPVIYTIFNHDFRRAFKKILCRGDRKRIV
# ASSAY_PROCEDURE: Radioligand binding, adrenergic α2A (Protocol Group B)
# Design: purchased Milipore (Millipore)
# CONDITION_DETAILS: 0.3 μM compound; Protocol Group B; 0.3 µM
Would you kindly list Percentage inhibition of ligand binding, Adrenergic α2A (0.3 μM) for each of these compounds?
Give the value in % but do not write % after it.

Just so you know, measured Percentage inhibition of ligand binding, Adrenergic α2A (0.3 μM) for CC(O)(Cn1c2c(c3cc(C(F)(F)F)ccc31)C1CCCN1CC2)c1cccnc1 (single isomer, unassigned) [64b] came out at 37

// Cc1ccc2c(c1)c1c(n2CC(C)(O)c2cccnc2)CC2CCC1N2C (single isomer, unassigned) [101b] : Percentage inhibition of ligand binding, Adrenergic α2A (0.3 μM) value = 8

The compound listed as Cc1cc(F)c2c(c1)c1c(n2CC(C)(O)c2cccnc2)CCN2CCCC12 (single isomer, unassigned) [79c] shows Percentage inhibition of ligand binding, Adrenergic α2A (0.3 μM) equal to −1

----------
# SYSTEM_UNDER_TEST: Human adrenergic α2B receptor (Homo sapiens)
# ASSAY_PROCEDURE: Radioligand binding, adrenergic α2B (Protocol Group B)
# Design: purchased Milipore (Millipore)
# CONDITION_DETAILS: 0.1 μM compound; Protocol Group B; 0.1 µM
Please mark Met if the recorded Percentage inhibition of ligand binding, Adrenergic α2B (0.1 μM) is equal to or greater than 20%, and Not met if it falls below.

# bool: Percentage inhibition of ligand binding, Adrenergic α2B (0.1 μM) of Cc1ccc2c(c1)c1c(n2CC(C)(O)c2ccc(N(C)C)nc2)CCN(C)C1 (centres unmarked) [compound 39] >= 20% Met

Is Percentage inhibition of ligand binding, Adrenergic α2B (0.1 μM) at least 20%? Consider Cc1ccc2c(c1)c1c(n2CC(O)c2ccncc2)CNC2CCCC12 (single isomer, unassigned) [34d] Met

Kindly determine if Percentage inhibition of ligand binding, Adrenergic α2B (0.1 μM) recorded for CC(O)(Cn1c2c(c3cc(F)ccc31)C1CCCN1CC2)c1cccnc1 (centres unmarked) [51a] is above or exactly 20%. Met

Does Cc1cc(C)c2c(c1)c1c(n2CC(C)(O)c2ccncc2)CCN2CCCC12 (centres unmarked) [compound 19] have a reported Percentage inhibition of ligand binding, Adrenergic α2B (0.1 μM) of at least 20%? Met

Hi team, for Cc1ccc2c(c1)c1c(n2CC(C)(O)c2cccnc2)CC2CCCN2C1 (centres unmarked) [41b] , is the recorded Percentage inhibition of ligand binding, Adrenergic α2B (0.1 μM) at or above 20%? Not met

Percentage inhibition of ligand binding, Adrenergic α2B (0.1 μM) >= 20% for Cc1ccc2c(c1)c1c(n2CC(C)(O)c2cccnc2)CCN(C)C1CO (single isomer, unassigned) [16b] ? Not met

Check the entry Cc1cc(F)c2c(c1)c1c(n2CC(C)(O)c2ccncc2)CC2CCCN2C1 (single isomer, unassigned) [62c] : does Percentage inhibition of ligand binding, Adrenergic α2B (0.1 μM) equal or exceed 20%? Met

Please tell me: is the compound Cc1ccc2c(c1)c1c(n2CC(C)(O)c2cccnc2)CC2CCCN2C1 (centres unmarked) [38d] at or over 20% in terms of Percentage inhibition of ligand binding, Adrenergic α2B (0.1 μM)? Met

Is Percentage inhibition of ligand binding, Adrenergic α2B (0.1 μM) for CC(O)(Cn1c2c(c3cc(Cl)cc(F)c31)CN1CCCC1C2)c1cccnc1 (single isomer, unassigned) [63b] at or above 20%? Met

Please tell me: is the compound Cc1ccc2c(c1)c1c(n2CC(O)c2ccncc2)CN(C)C2CCCC12 (single isomer, unassigned) [36a] at or over 20% in terms of Percentage inhibition of ligand binding, Adrenergic α2B (0.1 μM)? Not met

Decide: is the reported value of Percentage inhibition of ligand binding, Adrenergic α2B (0.1 μM) for Cc1ccc2c(c1)c1c(n2CC(C)(O)c2ccc(N(C)C)nc2)CCN(C)C1 (single isomer, unassigned) [39b] equal to or greater than 20%? Met

src = patent US20150315188A1
